Reference for the values: PubChem BioAssay AID1022

# Assayed System: Induced myeloid leukemia cell differentiation protein Mcl-1 (Homo sapiens) (UniProt Q07820)
# Sequence (Q07820 whole entry, looked up): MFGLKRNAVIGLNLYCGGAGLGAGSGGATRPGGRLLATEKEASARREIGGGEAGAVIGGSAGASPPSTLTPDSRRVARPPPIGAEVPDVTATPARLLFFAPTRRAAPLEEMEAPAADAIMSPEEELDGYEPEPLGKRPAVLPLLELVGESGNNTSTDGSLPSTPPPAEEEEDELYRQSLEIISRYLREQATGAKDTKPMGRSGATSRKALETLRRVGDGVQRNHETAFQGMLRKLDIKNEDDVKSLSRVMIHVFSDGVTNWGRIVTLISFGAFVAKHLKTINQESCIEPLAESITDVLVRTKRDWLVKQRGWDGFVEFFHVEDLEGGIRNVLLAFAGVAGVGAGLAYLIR
# Test Details: disruptors of Mcl-1 and Noxa BH3 peptide – biochemical, TR-FRET, 1536-well, primary screen (AID 1022);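 also: His-tagged Mcl-1 with rhodamine Noxa BH3 peptide and terbium anti-His antibody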
# Settings: TR-FRET Mcl-1/Noxa peptide binding, 2 h; at 21.7 µM
The whole screen tested about 220,000 compounds, of which about 3,300 (1.5%) were called active.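 The calls were made as follows: active = compounds that cut the protein-peptide binding signal by more than 50% relative to plate controls in a single-dose test; inactive = the rest.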 The entries come from a sample that favours actives as a whole.
Possible outcomes: active, inactive

| Molecule | Label Value |
| --- | --- |
| COC(=O)c1sc(=S)n(-c2ccccc2)c1N | inactive |
| O=C(Nc1ccc(S(=O)(=O)N2CCOCC2)cc1)c1ccc2ncsc2c1 | inactive |
| CCOC(=O)Cn1c(N)c(C(=O)OC)sc1=S | inactive |
| C/C=C(\C)C(=O)N1CC2(CC(c3cccc(NC(=O)CCCCC)c3)=NO2)C[C@@H]1C(N)=O (stereo partly specified) | inactive |
| Cc1ccc(S(=O)(=O)c2ccc(Cl)cc2)cc1S(=O)(=O)NC(C(=O)O)C(C)C (stereo unspecified) | inactive |
| CCOC(=O)N1CCN(C(=O)c2ccc(S(=O)(=O)c3ccc(C)cc3)c(NC(C)=O)c2)CC1 | inactive |
| O=C(NCc1ccccn1)c1ccc2nc(-c3ccco3)c(-c3ccco3)nc2c1 | active |
| OCC1(Cc2ccccc2C(F)(F)F)CCN(Cc2ccncc2)CC1 | inactive |
| O=C(NC1CCCCC1)N1CCc2[nH]c3ccccc3c2C1 | inactive |
| O=C(Nc1ccc(Cl)cc1)N1CCc2[nH]c3ccccc3c2C1 | active |
| COCCOC(=O)c1sc(=S)n(CCOC)c1N | active |
